# PROCEDURE_TEXT: Pooled posaconazole steady-state concentration and elimination half-life, clinical studies BOW-001 and BOW-002
# Type: in vivo, human
# SETTINGS: human, in vivo, BOW-002 Normal; read-out: t1/2, Mean (converted)
# Excerpt: The two clinical studies used the same protocol to measure posaconazole's elimination half-life, allowing for the data for normal patients from each study to be combined (“All Normal”) and data for obese patients from each study to be combined (“All Obese”).

COMPOUND_STRUCTURE_STRING: CC[C@@H]([C@H](C)O)n1ncn(-c2ccc(N3CCN(c4ccc(OC[C@@H]5CO[C@@](Cn6cncn6)(c6ccc(F)cc6F)C5)cc4)CC3)cc2)c1=O
half-life, min: 1850

###

# System: CYP3A
# PROCEDURE_TEXT: Example 2: lurasidone pharmacokinetics during and after posaconazole (drug-drug interaction)
# Format: in vivo
# SETTINGS: human, plasma, oral, Normal, Day 14 (with posaconazole); read-out: Lurasidone elimination half-life, arithmetic mean ± S.E. (converted)

COMPOUND_STRUCTURE_STRING: O=C1[C@@H]2[C@H]3CC[C@H](C3)[C@@H]2C(=O)N1C[C@@H]1CCCC[C@H]1CN1CCN(c2nsc3ccccc23)CC1
MEASURED_ON: CYP3A
half-life: 37 h

###

# PROCEDURE_TEXT: AUC and Cmax target safe levels of CYP3A4 substrate drugs (Table 1)
# SETTINGS: human
Consider the following compounds and their measured Cmax target safe level, Fold change readings.

COMPOUND_STRUCTURE_STRING: C[C@H](Nc1ncnc2[nH]cnc12)c1cc2cccc(Cl)c2c(=O)n1-c1ccccc1
UNIT_LABEL: fold
Cmax target safe level, Fold change: 1.7

COMPOUND_STRUCTURE_STRING: Cc1[nH]c2ccccc2c1CCNCc1ccc(/C=C/C(=O)NO)cc1
UNIT_LABEL: fold
Cmax target safe level, Fold change: 1.62

COMPOUND_STRUCTURE_STRING: N#Cc1ccnc(N2C(=O)CC[C@H]2C(=O)N(c2cncc(F)c2)[C@H](C(=O)NC2CC(F)(F)C2)c2ccccc2Cl)c1
UNIT_LABEL: fold
Cmax target safe level, Fold change: 1.52

COMPOUND_STRUCTURE_STRING: CCc1nc(C(N)=O)c(Nc2ccc(N3CCC(N4CCN(C)CC4)CC3)c(OC)c2)nc1NC1CCOCC1
UNIT_LABEL: fold
Cmax target safe level, Fold change: 1.20

COMPOUND_STRUCTURE_STRING: COc1cc(OC)cc(N(CCNC(C)C)c2ccc3ncc(-c4cnn(C)c4)nc3c2)c1
UNIT_LABEL: fold
Cmax target safe level, Fold change: 1.05

COMPOUND_STRUCTURE_STRING: CC(C)COc1ccc(CNC(=O)N(Cc2ccc(F)cc2)C2CCN(C)CC2)cc1
UNIT_LABEL: fold
Cmax target safe level, Fold change: 1.5

COMPOUND_STRUCTURE_STRING: N#CC[C@H](C1CCCC1)n1cc(-c2ncnc3[nH]ccc23)cn1
UNIT_LABEL: fold
Cmax target safe level, Fold change: 1.33

COMPOUND_STRUCTURE_STRING: CC#CC(=O)N1CCC[C@H]1c1nc(-c2ccc(C(=O)Nc3ccccn3)cc2)c2c(N)nccn12
UNIT_LABEL: fold
Cmax target safe level, Fold change: 2.0

###

# PROCEDURE_TEXT: Plasma posaconazole concentrations and washout half-life in normal-weight and obese subjects
# Format: in vivo, human
# SETTINGS: human, plasma, oral, obese subjects; from day 15; read-out: Postdosage washout half-life of posaconazole (converted)

COMPOUND_STRUCTURE_STRING: CC[C@@H]([C@H](C)O)n1ncn(-c2ccc(N3CCN(c4ccc(OC[C@@H]5CO[C@@](Cn6cncn6)(c6ccc(F)cc6F)C5)cc4)CC3)cc2)c1=O
half-life, h: 64.3

###

# PROCEDURE_TEXT: AUC and Cmax target safe levels of CYP3A4 substrate drugs (Table 1)
# SETTINGS: upper limit where benefits outweigh risks; approximation, can vary by about ±25%
RECORDED_ENDPOINT: Cmax target safe level, Percent of baseline (%)

COMPOUND_STRUCTURE_STRING: CCN(CC)CCNC(=O)c1c(C)[nH]c(/C=C2\C(=O)Nc3ccc(F)cc32)c1C
MEASURED_RESULT: 149
//
COMPOUND_STRUCTURE_STRING: CC(C)(C)c1cc(C(C)(C)C)c(NC(=O)c2c[nH]c3ccccc3c2=O)cc1O
MEASURED_RESULT: 270
//
COMPOUND_STRUCTURE_STRING: C=CCN1CC[C@]23c4c5ccc(O)c4O[C@H]2[C@@H](OCCOCCOCCOCCOCCOCCOCCOC)CC[C@@]3(O)[C@H]1C5
MEASURED_RESULT: 286
//
COMPOUND_STRUCTURE_STRING: CC(C)(NC(=O)C1=C(O)[C@@H]2Oc3c(O)ccc4c3[C@@]23CCN(CC2CC2)[C@H](C4)[C@]3(O)C1)c1nc(-c2ccccc2)no1
MEASURED_RESULT: 138
//
COMPOUND_STRUCTURE_STRING: O=C1CCc2ccc(OCCCCN3CCN(c4cccc(Cl)c4Cl)CC3)cc2N1
MEASURED_RESULT: 140

###

# PROCEDURE_TEXT: Plasma ranolazine pharmacokinetics before, during and after posaconazole in normal-weight and obese subjects
# Type: in vivo, human
# SETTINGS: human, plasma, oral, 500 mg, Day 18 (3 days after last posaconazole dose); obese subjects; ranolazine 500 mg ER; mean ± SD
RECORDED_ENDPOINT: AUC(0-inf) (ng·h/mL)

COMPOUND: COc1ccccc1OCC(O)CN1CCN(CC(=O)Nc2c(C)cccc2C)CC1 (stereo not shown)
MEASURED_RESULT: 19300

###

# PROCEDURE_TEXT: AUC and Cmax target safe levels of CYP3A4 substrate drugs (Table 1)
# SETTINGS: human
Measured Cmax target safe level, Percent of baseline values are reported for all entries that follow.
RECORDED_ENDPOINT: Cmax target safe level, Percent of baseline (%)

COMPOUND: COc1cc2c(cc1OC)CC(=O)N(CCCN(C)C[C@H]1Cc3cc(OC)c(OC)cc31)CC2
MEASURED_RESULT: 160
//
COMPOUND: C[C@H](Nc1ncnc2[nH]cnc12)c1cc2cccc(Cl)c2c(=O)n1-c1ccccc1
MEASURED_RESULT: 170
//
COMPOUND: COc1cccc(-c2c(C)n(Cc3c(F)cccc3C(F)(F)F)c(=O)n(C[C@H](NCCCC(=O)O)c3ccccc3)c2=O)c1F [elagolix sodium]
MEASURED_RESULT: 177
//
COMPOUND: CN1CC[C@@H](NC(=O)Nc2ccc(C#N)cc2)C[C@@H]1c1nc2ccccc2[nH]1
MEASURED_RESULT: 140
//
COMPOUND: COc1c(OCCCN2CCOCC2)ccc2c1N=C(NC(=O)c1cnc(N)nc1)N1CCN=C21
MEASURED_RESULT: 103
//
COMPOUND: COc1cc(OC)cc(N(CCNC(C)C)c2ccc3ncc(-c4cnn(C)c4)nc3c2)c1
MEASURED_RESULT: 105

###

# PROCEDURE_TEXT: Plasma ranolazine pharmacokinetics before, during and after posaconazole in normal-weight and obese subjects
# Type: in vivo, human
# SETTINGS: human, plasma, oral, 500 mg, Day 18 (3 days after last posaconazole dose); obese subjects; ranolazine 500 mg ER; mean ± SD

COMPOUND: COc1ccccc1OCC(O)CN1CCN(CC(=O)Nc2c(C)cccc2C)CC1 (stereo not shown)
half-life, min: 476

###

# PROCEDURE_TEXT: Plasma ranolazine pharmacokinetics before, during and after posaconazole in normal-weight and obese subjects
# Assay type: in vivo, human
# SETTINGS: human, plasma, oral, 500 mg, Day 1 (before posaconazole); normal-weight subjects; ranolazine 500 mg ER; mean ± SD

COMPOUND: COc1ccccc1OCC(O)CN1CCN(CC(=O)Nc2c(C)cccc2C)CC1 (stereo not shown) [ranolazine]
half-life, h: 4.99

###

# Test system: CYP3A
# PROCEDURE_TEXT: Example 2: lurasidone pharmacokinetics during and after posaconazole (drug-drug interaction)
# Assay type: in vivo
# SETTINGS: human, plasma, oral, 20 mg, Obese, Day 23 (posaconazole given Days 4-17); read-out: Lurasidone elimination half-life, arithmetic mean ± S.E. (converted)
RECORDED_ENDPOINT: half-life (h)

COMPOUND_STRUCTURE_STRING: O=C1[C@@H]2[C@H]3CC[C@H](C3)[C@@H]2C(=O)N1C[C@@H]1CCCC[C@H]1CN1CCN(c2nsc3ccccc23)CC1
RECORDED_ENDPOINT: half-life
MEASURED_RESULT: 52

###

# PROCEDURE_TEXT: Example 2: posaconazole pharmacokinetics in normal-weight and obese subjects
# Type: in vivo, human
# SETTINGS: human, plasma, oral, Normal; read-out: Washout half-life, Mean ± SD (converted)

COMPOUND: CC[C@@H]([C@H](C)O)n1ncn(-c2ccc(N3CCN(c4ccc(OC[C@@H]5CO[C@@](Cn6cncn6)(c6ccc(F)cc6F)C5)cc4)CC3)cc2)c1=O [posaconazole]
UNIT_LABEL: h
half-life: 31

// provenance: patent US20230414607A1
